assay: Human cytosol stability assay, liver cytosol; conditions: human, liver cytosol, with Menadione 100 µM (aldehyde oxidase inhibitor), t1/2 (min), human liver cytosol + NADPH + AOX inhibitor (Menadione 100 µM)
property-label: half-life at 1 µM (min)
Answer in min, number only, no unit symbol.

Q) What half-life at 1 µM value was documented for this compound, CC(=O)[C@H]1CC[C@H]2[C@@H]3CCC4=CC(=O)CC[C@]4(C)[C@H]3CC[C@]12C [Progesterone] ?
A) 15.5
